The measurements presented in this section are drawn from the RNAGym collection of RNA variant scans (doi:10.7554/elife.90254).

Kindly state self-cleavage for each of the entries shown.
B1: OR4K15 (parent)
chain: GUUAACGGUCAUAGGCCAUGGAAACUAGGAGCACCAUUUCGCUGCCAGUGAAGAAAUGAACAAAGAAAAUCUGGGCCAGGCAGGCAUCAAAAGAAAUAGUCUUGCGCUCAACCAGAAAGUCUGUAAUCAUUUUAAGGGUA

variants of: B1; assay: self-cleavage, relative activity (ratio to wild type); higher = more cleavage; in vitro, sequencing; the parent is a self-cleaving ribozyme
Give bare numbers.

Below: 8 variants and their reported self-cleavage.
{"polymer.sequence": "GUUAACGGUCAUAGGCGAUGGAAACUAGGAGCACCAUUUCGCUGCCAGUGAAGGAAUGAACAAAGAAAAUCUGGGCCAGGCAGGCAUCAAAAGAAAUAGUCUUGCGCUCAACCAGAAAGUCUGUAAUCAUUUUAAGGGUA [C17G A54G]", "assay.value": 0.86}
{"polymer.sequence": "GUUAACGGUCAUAGGCCAUGGUAACUAGGAGCACCAUUUCGCUGCCAGUGAAGAAAUGAACAUAGAAAAUCUGGGCCAGGCAGGCAUCAAAAGAAAUAGUCUUGCGCUCAACCAGAAAGUCUGUAAUCAUUUUAAGGGUA [A22U A63U]", "assay.value": 2.2}
{"polymer.sequence": "GUUAACGGUCAUAGGCCAUGGAAACUAGGAGCACCAUUUCGCUGCCAGUGAAGAAAUGAACAAAGAAAAUCUGGGCCCGGCAGGCAUCAAAAGAAAUAGUCUCGCGCUCAACCAGAAAGUCUGUAAUCAUUUUAAGGGUA [A78C U103C]", "assay.value": 0.14}
{"polymer.sequence": "GUUAACGGUCAUAGGCCAUGGAAACUAGGCGCACCAUUUCGCUGCCAGUGAAGAAAUGAACAAAGAAAAUCUGGGCCAGGCAGGCAUCAAAAGAAAUAGUCUGGCGCUCAACCAGAAAGUCUGUAAUCAUUUUAAGGGUA [A30C U103G]", "assay.value": 0.01}
{"polymer.sequence": "GUUAACGGUCAUAGGCCAUGGAAACUAGGAGCACCAUUUCGCUGUCAGUGAAGAAAUGAACAAAGAAAAUCUGGGCCAGGCAGGCAUCAAAAGAAAUAGUCUUGCGCUCAACCAGAAAGUCGGUAAUCAUUUUAAGGGUA [C45U U122G]", "assay.value": 2.74}
{"polymer.sequence": "GUUAACGGUCAUAGACCAUGGAAACUAGGAGCACCAUUUCGCUGCCAGUGAAGAAAUGAACAAAGAAAAUCUGGGCCAGGCAGGCAUCAAAAGAAAUAGUCUUGCGCUCAACUAGAAAGUCUGUAAUCAUUUUAAGGGUA [G15A C113U]", "assay.value": 0.03}
{"polymer.sequence": "GUUAACGGUCAUAGGCCAUGGAAACUAGGAGCACCAUUUCGCUGCCAGUGAAGAAAUGAACAAGGAAAAUCUGGGCCAGGCAGGCAUCAAAAGAAAUAGUCUUGCGCUCAAUCAGAAAGUCUGUAAUCAUUUUAAGGGUA [A64G C112U]", "assay.value": 0.01}
{"polymer.sequence": "GUUAACGGUCAUAGGCCAUGGAAACUAGGAGCACCAUUUCGUUGCCAGUGAAGAAAUGAACAAAGAAAAUCUGGGCCAGGCAGGCAUCAAAAGAAAUAGUCUUGCGCUCAACCAGAAAGUCUGUAAUCAUUUUAAGGGAA [C42U U139A]", "assay.value": 2}

Items follow; give self-cleavage for each.
1. GUUAACGGUCAUAGGCCAUGGAAACUAGGAGCACCAUUUCGCAGCCAGUGAAGAAAUGGACAAAGAAAAUCUGGGCCAGGCAGGCAUCAAAAGAAAUAGUCUUGCGCUCAACCAGAAAGUCUGUAAUCAUUUUAAGGGUA [U43A A59G]
2. GUUAACGGUCAUAGGCCAUGGAAACUAGGAGCACCAUUUCGCUGCCAGUGAAGAAAUGAACAAAGAAAAUCUGGGCCAGGCGGGCAUCAAAAGAAAUAGUCUUGCGCUCAACCAGAAAGUCUGUAAUCAUUUUAAAGGUA [A82G G136A]
3. GUUAACGGUCAUAGGCCAUGGAAACUAGGAGCACCAUUUCGCUGCCAGUGAAGAAAUGAACAAAGAAAAUCUGGGCCGGGCAGGCAUCAAAAGAAAUAGACUUGCGCUCAACCAGAAAGUCUGUAAUCAUUUUAAGGGUA [A78G U100A]
4. GUUAACGGUCAUAGGCCAUGGAAACUAGGAGCACCAUUUCGCUGCCAGUGAAGAAAUGAACAAAGAAAAUCUGGGCCAGGCAGGCACCAAAAGAAGUAGUCUUGCGCUCAACCAGAAAGUCUGUAAUCAUUUUAAGGGUA [U87C A96G]
5. GUUAACGGUCAUAGGCCAUGGAAACUAGGAGCACCGUUUCGCUGCCAGUGAAGAAAUGAACAAAGAAGAUCUGGGCCAGGCAGGCAUCAAAAGAAAUAGUCUUGCGCUCAACCAGAAAGUCUGUAAUCAUUUUAAGGGUA [A36G A68G]
6. GUUAACGGUCAUAGGCCAAGGAAACUAGGAGCACCAUUUCGCUGCCAGUGAAGAAAUGAACAAAGAAAAUCUGGGCCAGGCAGGCAUCAAAAGAAAUAGUCUUGCGCUCAACCAGAAAGUCUGUAAUCAUUUUAAGGGUA [U19A]
7. GUUAACGGUCAUAGGCCAUGGAAACUAGGAGCACCAUUUCGCUGCCAGUGAAGAAAUGAACAAAGAAAAUCUGGGCCAGGCAGGCAUCAAAAGAAAUAGUCUUGCGCUCAACCAGAAAGUCUGUAAUCAUCUUAAGGGUG [U131C A140G]

Result block:
[1.52, 0.9, 0.04, 1.81, 2.06, 1.16, 0.47]

Items follow; give self-cleavage for each.
1. GUUAACGGUCAUAGGCCAUGGAAACUAGGAGCACCUUUUCGCUGCCAGUGAAGAAAUGAACAAAGAAAAUCUGGGCCAGGCAGGCAUCAAAAGAAAUAGUCUUGCGCUCAACCAGAAAGUCUAUAAUCAUUUUAAGGGUA [A36U G123A]
2. GUUAACGGUCAUAGGCCAUGGAAACUUGGAGCACCAUUUCGCGGCCAGUGAAGAAAUGAACAAAGAAAAUCUGGGCCAGGCAGGCAUCAAAAGAAAUAGUCUUGCGCUCAACCAGAAAGUCUGUAAUCAUUUUAAGGGUA [A27U U43G]
3. GUUAACGGUCAUAGGCCAUGGAAGCUAGGAGCACCAUUUCGCUGCCAGUGAAGAAAUGAACAAAGAAAAUCUGGGCCAGGCAGGCAUCAAAAGAAAUAGUCUUGCGCUCAACCAGAAAGUCUGUAAUCAUUAUAAGGGUA [A24G U132A]
4. GUUAACGGUCAUAGGCCGUGGAAACUAGGAGCACCAUUUCGCUGCCAGCGAAGAAAUGAACAAAGAAAAUCUGGGCCAGGCAGGCAUCAAAAGAAAUAGUCUUGCGCUCAACCAGAAAGUCUGUAAUCAUUUUAAGGGUA [A18G U49C]

Result block:
[1.73, 1.64, 0.48, 1.43]

Items follow; give self-cleavage for each.
1. GUUAACGGACAUAGGCCAUGGAAGCUAGGAGCACCAUUUCGCUGCCAGUGAAGAAAUGAACAAAGAAAAUCUGGGCCAGGCAGGCAUCAAAAGAAAUAGUCUUGCGCUCAACCAGAAAGUCUGUAAUCAUUUUAAGGGUA [U9A A24G]
2. GUUAACGGUCAUAGGCCAUGGAAACUAGGAGCACCAUUUCGCUGCCAGUGAAGAAAUGAACAAAGAAAAUCUGGGCCAGGCAGGCAUCGAAAGAAAUAGUCUUGCGCGCAACCAGAAAGUCUGUAAUCAUUUUAAGGGUA [A89G U108G]

Result block:
1: 1.29; 2: 0.01
